Tested on: Hepatotoxicity
Test: FDA HLAED, serum glutamic pyruvic transaminase (SGPT) increase
Details: human
measured.attribute: SGPT Increase - Activity Score

compound: Cc1cn([C@H]2C=C[C@@H](CO)O2)c(=O)[nH]c1=O [STAVUDINE]
SGPT Increase - Activity Score: Active

compound: CC[C@H](C)C(=O)O[C@H]1C[C@H](O)C=C2C=C[C@H](C)[C@H](CC[C@@H](O)C[C@@H](O)CC(=O)O)[C@H]21 [PRAVASTATIN]
SGPT Increase - Activity Score: Active

compound: CCCN1C[C@H](CSC)C[C@@H]2c3cccc4[nH]cc(c34)C[C@H]21 [PERGOLIDE]
SGPT Increase - Activity Score: Inactive

compound: C[C@@H]1C[C@H]2[C@H]3[C@H]([C@@H](O)C[C@]2(C)[C@@]1(O)C(=O)CO)[C@@]1(C)C=CC(=O)C=C1C[C@H]3Cl [ALCLOMETASONE]
SGPT Increase - Activity Score: Inactive

compound: CCOC(=O)c1ccc(C#Cc2ccc3c(c2)C(C)(C)CCS3)nc1 [TAZAROTENE]
SGPT Increase - Activity Score: Inactive

compound: CCOC(=O)[C@H](CCc1ccccc1)N[C@@H](C)C(=O)N1Cc2cc(OC)c(OC)cc2C[C@H]1C(=O)O [MOEXIPRIL]
SGPT Increase - Activity Score: Inactive

compound: Clc1ccc(C(Cn2ccnc2)OCc2ccsc2Cl)c(Cl)c1 (stereo not given) [TIOCONAZOLE]
SGPT Increase - Activity Score: Inactive

compound: N#Cc1cc(NC(=O)C(=O)O)c(Cl)c(NC(=O)C(=O)O)c1 [LODOXAMIDE]
SGPT Increase - Activity Score: Inactive

O=c1[nH]c(=O)n([C@H]2C[C@H](O)[C@@H](CO)O2)cc1C(F)(F)F [TRIFLURIDINE] has a reported SGPT Increase - Activity Score of Inactive

NCCCC[C@H](N[C@@H](CCc1ccccc1)C(=O)O)C(=O)N1CCC[C@H]1C(=O)O [LISINOPRIL ANHYDROUS] has a reported SGPT Increase - Activity Score of Inactive

NC(N)=Nc1nc(CSCCC(N)=NS(N)(=O)=O)cs1 [FAMOTIDINE] has a reported SGPT Increase - Activity Score of Inactive
